Please go through the items and note down their EC50.
target: PPAR-γ receptor (Homo sapiens); test: biochemical; format: biochemical
Sequence (P37231 whole entry): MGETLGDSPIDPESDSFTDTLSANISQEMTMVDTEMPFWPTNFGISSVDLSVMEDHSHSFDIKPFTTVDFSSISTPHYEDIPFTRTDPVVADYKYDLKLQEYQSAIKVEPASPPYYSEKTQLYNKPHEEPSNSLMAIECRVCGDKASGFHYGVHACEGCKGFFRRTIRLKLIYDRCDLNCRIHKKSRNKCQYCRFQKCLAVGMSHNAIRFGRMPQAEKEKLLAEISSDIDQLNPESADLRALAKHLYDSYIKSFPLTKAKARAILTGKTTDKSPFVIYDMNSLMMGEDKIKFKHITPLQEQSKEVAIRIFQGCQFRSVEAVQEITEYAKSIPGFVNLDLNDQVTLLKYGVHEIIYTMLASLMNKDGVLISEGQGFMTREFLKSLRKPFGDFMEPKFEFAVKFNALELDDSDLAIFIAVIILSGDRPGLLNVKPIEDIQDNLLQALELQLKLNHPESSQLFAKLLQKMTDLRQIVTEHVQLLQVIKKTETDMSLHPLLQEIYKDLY
Entry rule: numbers only, all in nM.

Endpoint output: EC50 of Cc1c(C(=O)c2cccc3ccccc23)c2ccccc2n1CCNc1ccc(C(=O)O)c(O)c1 [DWIN1 (IX)] . Value?
493

Endpoint output: EC50 of Cc1c(C(=O)c2cccc3ccccc23)c2ccccc2n1CCNc1ccc(O)c(C(=O)O)c1 [DWIN2 (X)] . Value?
358
